Biological target: T1, human GIP receptor (human, UniProt P48546 22-466)
T1 sequence (looked up): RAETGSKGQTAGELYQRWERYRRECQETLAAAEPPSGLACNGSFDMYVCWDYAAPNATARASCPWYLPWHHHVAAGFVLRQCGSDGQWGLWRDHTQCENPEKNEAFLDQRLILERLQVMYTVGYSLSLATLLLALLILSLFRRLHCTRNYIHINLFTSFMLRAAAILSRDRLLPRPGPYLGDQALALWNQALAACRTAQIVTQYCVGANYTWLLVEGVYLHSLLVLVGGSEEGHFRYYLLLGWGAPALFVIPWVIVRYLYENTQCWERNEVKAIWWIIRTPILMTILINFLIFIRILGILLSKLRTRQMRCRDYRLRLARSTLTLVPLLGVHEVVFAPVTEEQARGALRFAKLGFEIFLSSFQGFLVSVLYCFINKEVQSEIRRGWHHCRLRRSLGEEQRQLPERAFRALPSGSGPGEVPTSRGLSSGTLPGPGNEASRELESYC
Assay: cell-based or functional assay
Bridge positions count the residues as written; N and C are the ends. Square brackets hold non-standard residues; d marks the D form. Ends that are not written are not given here. * marks the point of attachment. Acetyl(2-(4-imidazolyl)) = O=C(Cc1c[nH]cn1)*; Aib = CC(C)(N)C(=O)O
quantity_measured: In vitro activity compared to native peptide (%) vs GIP

> print(dat)
                                      binder  result
 1  Y[Aib]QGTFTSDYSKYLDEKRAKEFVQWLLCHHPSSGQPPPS (bridge 16-20) [Triple agonist of SEQ ID NO: 95]  < 0.1%
 2  Y[Aib]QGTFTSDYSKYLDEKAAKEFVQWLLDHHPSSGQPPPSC (bridge 16-20) [Triple agonist of SEQ ID NO: 75]     18%
 3  H[Aib]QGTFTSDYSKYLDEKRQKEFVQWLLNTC (bridge 16-20) [Triple agonist of SEQ ID NO: 51]    0.1%
 4  {Acetyl(2-(4-imidazolyl))}-[Aib]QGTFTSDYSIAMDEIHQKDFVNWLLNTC (bridge 15-19) [Triple agonist of SEQ ID NO: 87]  < 0.1%
 5  {Acetyl(2-(4-imidazolyl))}-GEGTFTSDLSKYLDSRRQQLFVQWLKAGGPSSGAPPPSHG [Triple agonist of SEQ ID NO: 11]  < 0.1%
 6  Y[Aib]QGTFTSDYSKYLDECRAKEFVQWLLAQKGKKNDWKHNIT (bridge 16-20) [Triple agonist of SEQ ID NO: 23]  < 0.1%
 7  H[Aib]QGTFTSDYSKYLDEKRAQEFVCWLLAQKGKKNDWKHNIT [Triple agonist of SEQ ID NO: 28]  < 0.1%
 8  {Acetyl(2-(4-imidazolyl))}-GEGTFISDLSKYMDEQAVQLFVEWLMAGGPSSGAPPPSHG [Triple agonist of SEQ ID NO: 12]  < 0.1%
 9  H[Aib]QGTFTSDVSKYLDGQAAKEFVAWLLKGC [Triple agonist of SEQ ID NO: 7]  < 0.1%
10  {Acetyl(2-(4-imidazolyl))}-[Aib]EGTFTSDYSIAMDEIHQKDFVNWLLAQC (bridge 15-19) [Triple agonist of SEQ ID NO: 83]    0.4%

Just for reference, patent US20230381281A1 is where these values come from.
